- System: M19-MEL melanoma
- ASSAY_NAME: NCI tumour cell line growth inhibition, 48 h
QUANTITY_NAME: TGI

Solved cases (2 shown):
## Input Requested read-out: TGI. Entry: `O=S(=O)(O)CS(=O)(=O)OCCCl`
## Output > 100 µM

## Input Any idea what TGI was measured for `Cc1c(C(=O)CSc2nc3ccc([N+](=O)[O-])cc3[nH]2)c(=O)n(-c2ccccc2)n1C` ?
## Output > 100 µM

// for each compound below, give its TGI
1. O=C1C=C(N2CCCC2)C=C(N2CCCC2)C1
2. CC1=C(C(=O)Nc2ccccc2)C(c2ccc3c(c2)OCO3)C(C(=O)Nc2ccccc2)=C(C)N1

## Output
91.2 µM
> 100 µM

* * *

- Test system: SNB-75 CNS
- ASSAY_NAME: NCI tumour cell line growth inhibition, 48 h
QUANTITY_NAME: GI50

Some molecules with known GI50 results, for comparison:
## Input Could you share which GI50 value was measured for `O=C(c1cccs1)c1c(C(F)(F)F)n([O-])c2ccc(C(F)(F)F)cc2[n+]1=O` ?
## Output 502 nM

## Input Reported GI50, molecule CC1(C)CC(=O)C2=C(C1)NC(SSC1=C(C#N)C(c3ccccc3)C3=C(CC(C)(C)CC3=O)N1)=C(C#N)C2c1ccccc1 (stereo unspecified) : ____
## Output 29 µg/mL

## Input Item under review: `Cc1ccc(-c2c(C#N)c(N)nc(N3CCOCC3)c2C#N)o1` . Reported GI50?
## Output 2730 nM

Provide GI50 values for the following items, in order.
1. COc1ccc(/C=C2\CN(C(=O)CCN3CCC(=NO)CC3)C/C(=C\c3ccc(OC)cc3)C2=O)cc1
2. COc1cc2cc(Oc3ccc(NC(=O)Nc4cccc(C(F)(F)F)c4)cc3)c(C)nc2cc1OCCN1CCCCC1
3. CCOC(=O)c1cnc(SCc2ccc(Cl)c(Cl)c2)nc1N1CC1
4. O=C1/C(=C\c2ccc(Cl)cc2)CN(C(=S)Nc2ccccc2)C/C1=C\c1ccc(Cl)cc1
5. O=C(c1ccccc1)c1nn(-c2ccc(Cl)cc2)c2nc3nc(-c4ccccc4)cc(=O)n3nc12
6. CCCCCCCCCCCCCCCCCCNC(=O)[C@H]1CSC(c2ccc(OC)c(F)c2)N1 (stereo partly specified)
7. CCCCCCCCCCCCc1ccc(C(=O)/C=C/C(=O)O)cc1

## Output
2140 nM
1150 nM
2050 nM
1250 nM
28800 nM
3100 nM
1660 nM

Count: 6. Required value per item: GI50.
1. Cc1cc(NC(=O)C2c3ccccc3C(=O)N(CC(C)C)C2c2cccs2)no1 (stereo unspecified)
2. Cn1cc(-c2ccc(=O)n(Cc3cccc(-c4ncc(OCCN5CCOCC5)cn4)c3)n2)cn1
3. Nc1cccc2c1C(=O)N(C1CCC(=O)NC1=O)C2=O (stereo unspecified)
4. COc1ccc(/C(=C/c2cc(OC)c(OC)c(OC)c2)[N+](=O)[O-])cc1
5. C[C@@H](c1ccc2nccn2c1)n1nnc2ncc(-c3cnn(C)c3)nc21
6. COC(=O)[C@]12CC[C@@H](C)[C@H](C)[C@@H]1C1=CC[C@@H]3[C@@]4(C)CC(=O)[C@H](O)[C@@]5(C)COC(=C45)C[C@@]3(C)[C@]1(C)CC2

## Output
10500 nM
> 42500 nM
> 100000 nM
2020 nM
> 100000 nM
16000 nM

* * *

For each entry below, report its TGI value.
- Test system: MOLT-4 leukemia
- ASSAY_NAME: NCI tumour cell line growth inhibition, 48 h

Guide cases for TGI, answers given:
## Input I'd like to know its TGI. The compound in question is `CC(=O)Oc1cc(OC(C)=O)c2c(=O)c3ccccc3n(C)c2c1`
## Output > 100 µM

## Input What does the data say about its TGI? Entry: `CC(C)(C)c1cc(C(=O)/C=C/c2ccc(O)c(O)c2O)cc(C(C)(C)C)c1O`
## Output 28.9 µM

## Input Need TGI, item O=C1C2CC(Cl)C(SSC3CC4C(=O)N(SC(Cl)(Cl)C(Cl)Cl)C(=O)C4CC3Cl)CC2C(=O)N1SC(Cl)(Cl)C(Cl)Cl (stereo unspecified)
## Output 1.35 µM

## Input Given the compound `COC(=O)[C@@H]1C=C[C@@H](C#N)n2c(=O)n(-c3ccccc3)c(=O)n21` , what is its reported TGI?
## Output 67.1 µM

## Input # query: TGI of entry `Cc1ccc(/C=C2\N=C(N3CCCCC3)NC2=O)cc1`
## Output > 100 µM

## Input Any idea what its TGI is? The compound is CC12OC(C(=O)C13CC3)C1C(=O)c3ccccc3C(=O)C12 (stereo unspecified)
## Output > 100 µM

## Input Value lookup for TGI; key = `COc1cc(N(CCC#N)CCC#N)ccc1/C(N=Nc1ccc(C)cc1)=N/NC(=O)c1cc(Br)ccc1O`
## Output 37.3 µM

## Input Which value of TGI has been reported for O=C1C2=C(c3ccccc31)C(c1ccc(Cl)cc1)N1C(=O)CCSC1=N2 (stereo unspecified) in the records?
## Output > 100 µM

Hello, I would appreciate it if you could give TGI for each entry below.
1. S=c1[nH]nc(COc2ccc(Cl)cc2)o1
2. Cc1cc2c(C)c3cc(C)c(N)cc3nc2cc1N
3. CCOC(=O)N1CCN(Cc2cc(=O)n3cc(C)ccc3n2)CC1
4. O=[N+]([O-])c1ccc(N/N=C\c2cc(Cl)ccc2O)nc1
5. O=C1C(C(O)(C(F)(F)Cl)C(F)(F)Cl)CCC1C(O)(C(F)(F)Cl)C(F)(F)Cl (stereo unspecified)
6. CC(C)C1CC=NN1C(=O)OC(C)(C)C (stereo unspecified)
7. COc1ncnc2c1cnn2Cc1cn(COCC(O)CO)nn1 (stereo unspecified)

## Output
1: > 100 µM; 2: 6.23 µM; 3: > 100 µM; 4: > 100 µM; 5: > 10 µM; 6: > 100 µM; 7: > 100 µM

The following compounds each have a reported value; give each one's TGI.
1. COCCOCN(C(=O)C1=CCC2(CC1)OCCO2)c1ccccc1I
2. COc1cc(O)c(C(=O)/C=C/c2ccccc2)c(OC)c1
3. CCC1(OC(=O)CN2CCN(CCO)CC2)C(=O)OCc2c1cc1n(c2=O)Cc2cc3ccccc3nc2-1 (stereo unspecified)

## Output
["> 50 µM", "25 µM", "1.59 µM"]

Please report TGI for every entry that follows.
1. CCCCCCCCCCCCCCCC(=O)ON1C(=S)NC(C)(c2ccccc2)C1=S (stereo unspecified)
2. CCOC(=O)Cc1c(Cc2[nH]c(C(=O)OCc3ccccc3)c(CC(=O)OCC)c2CC(=O)OCC)[nH]c(C(=O)OCc2ccccc2)c1CC(=O)OCC
3. COC(=O)c1ccc2c(c1)CC1(C2)Cc2cc3c(c(C(=O)OC)c2C1)CCCC3 (stereo unspecified)

## Output
1: > 100 µM; 2: > 100 µM; 3: > 100 µM

* * *

- Test system: SK-MEL-5 melanoma
- ASSAY_NAME: NCI tumour cell line growth inhibition, 48 h
Please respond with reported TGI for every item in the list.

For every item below, please supply its TGI.
1. COc1cc(-c2cc(C(=O)N3CCN(C(=O)c4ccccc4NCc4ccco4)CC3)nc3cc(-c4ccccc4)nn23)cc(OC)c1OC
2. COc1cc(C2C(Cl)C(=O)N2n2cnc3ccccc3c2=O)cc(OC)c1OC (stereo not given)
3. CCCCCCCCCCCCCCCC(=O)ON1C(=S)NC(C)(c2ccccc2)C1=S (stereo not given)
4. O=C(c1ccccc1)c1nn(-c2ccc(Cl)cc2)c2nc3nc(-c4ccccc4)cc(=O)n3nc12
5. CSCCC(NCc1c(O)ccc2ccc(=O)oc12)C(=O)O (stereo not given)

## Output
> 100 µM
> 100 µM
> 100 µM
51.9 µM
> 100 µM

* * *

Assignment: determine reported GI50 for the given compounds.
- Test system: DU-145 prostate
- ASSAY_NAME: NCI tumour cell line growth inhibition, 48 h

## Input Recall the recorded GI50 for `CCCCCCCCCCCCc1ccc(C(=O)/C=C/C(=O)O)cc1` with DU-145 prostate and state it.
## Output 8.15 µM

Would you be so kind as to report GI50 for each listed record?
1. O=c1c(Cl)nnc2sc3ccccc3n12
2. O=C(Nc1ccncc1)C(=O)c1cn(S(=O)(=O)c2ccc(Br)cc2)c2ccccc12
3. O/N=C1\CCc2cc(-c3nc(C4CCNCC4)[nH]c3-c3ccncc3)ccc21
4. COc1cc2cc(Oc3ccc(NC(=O)Nc4ccc(F)c(C(F)(F)F)c4)cc3)c(C)nc2cc1OCCN1CCCCC1

## Output
57 µM
19 µM
> 25 µM
1.75 µM

Hi there! I need GI50 for each item below, if you can.
1. COc1cc[nH]c1/C=C1\C(=O)Nc2ccc(F)c(C#C[C@@H](O)[C@@H](N)[C@@H](C)O)c21
2. Cc1ccc(S(=O)(=O)NC(CCC(=O)Nc2ccc(Cl)cc2)C(=O)Nc2ccc(Cl)cc2)cc1 (centres undefined)
3. O=[N+]([O-])c1ccc(N/N=C\c2cc(Cl)ccc2O)nc1

## Output
1: 0.529 µM; 2: 1.2 µM; 3: 1.22 µM
